target: Gag-Pol polyprotein [588-1027]/[588-1147] (Human immunodeficiency virus 1, UniProt P04585)
MEASURED QUANTITY: pIC50
In textbook form, pIC50 equals minus log to base ten of the concentration in mol/L.

COMPOUND: O=C(C1CC1)N1c2ccccc2NC(=O)C1(C#CC1CC1)C(F)(F)F (stereo not drawn)
RECORDED RESULT: 6.90

// fetch Gag-Pol polyprotein [588-1027]/[588-1147] (Human immunodeficiency virus 1, UniProt P04585) pIC50 for CC(C)C(=O)N1c2ccccc2NC(=O)C1(C#CC1CC1)C(F)(F)F (stereo not drawn)
6.80
